molecular target: GABA-B receptor (Rattus norvegicus (Rat), UniProt O88871+Q9Z0U4); assay: [35S]GTPgS Binding Assay (rat brain cortex membranes, native receptor); format: biochemical; conditions: rat cortical membranes; in the presence of 1 μM GABA (EC25); basal binding 0%, maximal binding (1 mM GABA) 100%
Sequence (Q9Z0U4 17-960): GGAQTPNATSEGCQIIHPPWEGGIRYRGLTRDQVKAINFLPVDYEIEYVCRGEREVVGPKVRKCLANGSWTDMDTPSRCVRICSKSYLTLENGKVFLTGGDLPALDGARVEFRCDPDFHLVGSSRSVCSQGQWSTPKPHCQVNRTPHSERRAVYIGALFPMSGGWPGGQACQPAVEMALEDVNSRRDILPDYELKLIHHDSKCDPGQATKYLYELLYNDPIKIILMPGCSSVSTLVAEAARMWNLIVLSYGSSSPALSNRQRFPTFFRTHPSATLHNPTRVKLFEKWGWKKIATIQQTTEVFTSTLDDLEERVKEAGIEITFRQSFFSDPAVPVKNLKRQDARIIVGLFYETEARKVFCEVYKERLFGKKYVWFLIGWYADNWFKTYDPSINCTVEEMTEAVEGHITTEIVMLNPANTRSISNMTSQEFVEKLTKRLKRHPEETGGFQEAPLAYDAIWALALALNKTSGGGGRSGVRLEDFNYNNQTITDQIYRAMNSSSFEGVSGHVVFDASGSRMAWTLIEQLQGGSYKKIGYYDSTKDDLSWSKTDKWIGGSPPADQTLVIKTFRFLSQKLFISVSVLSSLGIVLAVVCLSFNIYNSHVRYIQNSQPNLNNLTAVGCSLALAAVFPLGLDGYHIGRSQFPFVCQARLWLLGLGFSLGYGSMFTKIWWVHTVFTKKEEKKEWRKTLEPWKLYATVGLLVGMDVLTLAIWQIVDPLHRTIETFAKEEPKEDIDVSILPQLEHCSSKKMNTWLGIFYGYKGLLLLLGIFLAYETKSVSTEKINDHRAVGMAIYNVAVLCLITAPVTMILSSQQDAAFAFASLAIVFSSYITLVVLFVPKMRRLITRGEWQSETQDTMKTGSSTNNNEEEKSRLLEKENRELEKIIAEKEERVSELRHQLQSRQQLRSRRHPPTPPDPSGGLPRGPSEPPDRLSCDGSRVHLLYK
Sequence (O88871 41-940): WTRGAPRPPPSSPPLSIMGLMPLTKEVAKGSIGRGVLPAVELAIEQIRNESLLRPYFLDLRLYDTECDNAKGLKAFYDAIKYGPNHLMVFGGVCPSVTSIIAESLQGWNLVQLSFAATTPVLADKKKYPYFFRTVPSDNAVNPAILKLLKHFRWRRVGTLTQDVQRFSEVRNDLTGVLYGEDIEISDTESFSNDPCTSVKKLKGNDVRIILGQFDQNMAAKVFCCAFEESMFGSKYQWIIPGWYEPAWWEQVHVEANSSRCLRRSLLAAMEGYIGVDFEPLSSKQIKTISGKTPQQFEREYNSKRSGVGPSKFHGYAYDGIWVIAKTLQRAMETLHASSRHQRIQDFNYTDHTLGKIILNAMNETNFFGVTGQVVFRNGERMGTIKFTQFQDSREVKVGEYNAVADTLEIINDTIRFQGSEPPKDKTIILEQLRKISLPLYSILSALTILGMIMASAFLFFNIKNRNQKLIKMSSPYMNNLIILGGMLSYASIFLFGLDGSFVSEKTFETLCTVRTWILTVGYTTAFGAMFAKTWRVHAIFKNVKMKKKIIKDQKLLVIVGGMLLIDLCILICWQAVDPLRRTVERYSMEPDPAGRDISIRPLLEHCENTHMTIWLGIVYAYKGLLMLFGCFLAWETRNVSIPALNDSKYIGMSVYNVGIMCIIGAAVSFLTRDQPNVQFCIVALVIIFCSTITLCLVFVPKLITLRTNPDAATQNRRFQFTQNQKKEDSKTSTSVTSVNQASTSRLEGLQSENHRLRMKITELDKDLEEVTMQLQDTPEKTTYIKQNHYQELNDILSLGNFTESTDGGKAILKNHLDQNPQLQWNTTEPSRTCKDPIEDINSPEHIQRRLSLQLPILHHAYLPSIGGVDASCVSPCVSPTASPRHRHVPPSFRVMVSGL

- COMPOUND: "Cc1noc2c(-c3cccc(N)c3)nn(C(C)c3ccc(Cl)cc3)c(=O)c12 (centres unmarked)"
  SUBJECT_OF_TEST: "GABA-B receptor (Rattus norvegicus (Rat), UniProt O88871+Q9Z0U4)"
  EC50: "501 nM"
- COMPOUND: "CC(=O)Nc1cccc(-c2nn(Cc3cc(C(F)(F)F)ccc3F)c(=O)c3c(C)noc23)c1"
  SUBJECT_OF_TEST: "GABA-B receptor (Rattus norvegicus (Rat), UniProt O88871+Q9Z0U4)"
  EC50: "2620 nM"
- COMPOUND: "CCCc1noc2c(-c3cc(OC)ccc3OC)nn(Cc3ccc(Cl)cc3)c(=O)c12"
  SUBJECT_OF_TEST: "GABA-B receptor (Rattus norvegicus (Rat), UniProt O88871+Q9Z0U4)"
  EC50: "> 10000 nM"
- COMPOUND: "CC(=O)Nc1cccc(-c2nn(Cc3ccc(Cl)cc3)c(=O)c3c(C)noc23)c1"
  SUBJECT_OF_TEST: "GABA-B receptor (Rattus norvegicus (Rat), UniProt O88871+Q9Z0U4)"
  EC50: "935 nM"
- COMPOUND: "COc1ccc(OC)c(-c2nn(C(C)c3ccc(Cl)cc3)c(=O)c3c(C)noc23)c1 (centres unmarked)"
  SUBJECT_OF_TEST: "GABA-B receptor (Rattus norvegicus (Rat), UniProt O88871+Q9Z0U4)"
  EC50: "229 nM"
- COMPOUND: "Cc1noc2c(-c3ccc4cc[nH]c4c3)nn(C(C)c3ccc(Cl)cc3)c(=O)c12 (centres unmarked)"
  SUBJECT_OF_TEST: "GABA-B receptor (Rattus norvegicus (Rat), UniProt O88871+Q9Z0U4)"
  EC50: "347 nM"
- COMPOUND: "COc1ccc(C(=O)N2CCCC2)cc1-c1nn(C(C)c2ccc(Cl)cc2)c(=O)c2c(C)noc12 (centres unmarked)"
  SUBJECT_OF_TEST: "GABA-B receptor (Rattus norvegicus (Rat), UniProt O88871+Q9Z0U4)"
  EC50: "450 nM"
- COMPOUND: "CCn1nccc1-c1nn(C(C)c2ccc(Cl)cc2)c(=O)c2c(C)noc12 (centres unmarked)"
  SUBJECT_OF_TEST: "GABA-B receptor (Rattus norvegicus (Rat), UniProt O88871+Q9Z0U4)"
  EC50: "4120 nM"
- COMPOUND: "CCc1nn([C@H](c2ccccc2)c2ccc(Cl)cc2)c(=O)c2c(CC)noc12 (single isomer, unassigned)"
  SUBJECT_OF_TEST: "GABA-B receptor (Rattus norvegicus (Rat), UniProt O88871+Q9Z0U4)"
  EC50: "1760 nM"
- COMPOUND: "CNC(=O)c1ccc(OC)c(-c2nn([C@H](C)c3ccc(Cl)cc3)c(=O)c3c(C)noc23)c1"
  SUBJECT_OF_TEST: "GABA-B receptor (Rattus norvegicus (Rat), UniProt O88871+Q9Z0U4)"
  EC50: "> 10000 nM"
- COMPOUND: "COc1ccc(NC(C)=O)cc1-c1nn(Cc2ccc(C(F)(F)F)cc2)c(=O)c2c(C)noc12"
  SUBJECT_OF_TEST: "GABA-B receptor (Rattus norvegicus (Rat), UniProt O88871+Q9Z0U4)"
  EC50: "644 nM"
- COMPOUND: "Cc1noc2c(-c3ccccc3N)nn(C(C)c3ccc(Cl)cc3)c(=O)c12 (centres unmarked)"
  SUBJECT_OF_TEST: "GABA-B receptor (Rattus norvegicus (Rat), UniProt O88871+Q9Z0U4)"
  EC50: "2130 nM"
- COMPOUND: "COc1ccccc1-c1nn(Cc2cc(C(F)(F)F)ccc2F)c(=O)c2c(C)noc12"
  SUBJECT_OF_TEST: "GABA-B receptor (Rattus norvegicus (Rat), UniProt O88871+Q9Z0U4)"
  EC50: "2290 nM"
- COMPOUND: "Cc1nn([C@H](C)c2ccc(Cl)cc2)c(=O)c2c(C)noc12 (single isomer, unassigned)"
  SUBJECT_OF_TEST: "GABA-B receptor (Rattus norvegicus (Rat), UniProt O88871+Q9Z0U4)"
  EC50: "> 10000 nM"
- COMPOUND: "Cc1noc2c(-c3ccc(F)cc3)nn(Cc3ccc(C(F)(F)F)cc3)c(=O)c12"
  SUBJECT_OF_TEST: "GABA-B receptor (Rattus norvegicus (Rat), UniProt O88871+Q9Z0U4)"
  EC50: "1580 nM"
- COMPOUND: "Cc1noc2c(-c3cc(Cl)ccc3N)nn(C(C)c3ccc(Cl)cc3)c(=O)c12 (centres unmarked)"
  SUBJECT_OF_TEST: "GABA-B receptor (Rattus norvegicus (Rat), UniProt O88871+Q9Z0U4)"
  EC50: "1960 nM"
- COMPOUND: "Cc1nn([C@@H](C)c2ccc(Cl)cc2)c(=O)c2c(C)noc12 (single isomer, unassigned)"
  SUBJECT_OF_TEST: "GABA-B receptor (Rattus norvegicus (Rat), UniProt O88871+Q9Z0U4)"
  EC50: "1810 nM"
